Source of measurements: paper PMC13287468

Target: T1, RsmE P64W (Pseudomonas protegens, UniProt P0DPC3, P64W)
T1 sequence: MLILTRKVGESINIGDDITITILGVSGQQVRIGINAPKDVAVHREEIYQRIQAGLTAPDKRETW
Assay: ITC; other site of the dimer holds one 4bpSL2 RNA; 50 mM potassium phosphate pH 7.2, 30 mM NaCl, 298 K; 10 uM monomer in the cell
Settings: tags: C-His6 (kept); chain copies: 2; hairpin; 2 copies of the RNA per protein dimer, value for the second
measured.metric: pKd
By convention, pKd is the negative base-10 log of a molar concentration.

Note to self: pKd recorded for GGAUCAAGGACGAUCC (ssRNA, T7 transcript (5' triphosphate expected)) [4bpSL2] was 7.01
